- Test target: T1, RBFOX1 RRM (Homo sapiens, UniProt Q9NWB1 109-208)
- T1 sequence: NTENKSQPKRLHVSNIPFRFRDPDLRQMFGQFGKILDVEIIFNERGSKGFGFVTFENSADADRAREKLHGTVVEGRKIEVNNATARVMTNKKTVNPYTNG
- Method description: EMSA; HiTS-Eq, 1 nM pool, 10 min; buffer printed only for the single-RNA assays: 10 mM Tris pH 7.5, 150 mM NaCl, 3.4 mM EDTA, 0.001% NP-40, 30 C
- Experimental setup: tags: His6 N-terminal (pET28a); label: 5' 32P
The full ranking holds about 16,000 sequences; the median of “ka relative to ugcaugu” is about 0.0091, and the highest 2% start at about 0.032. Many of the other results were omitted from the sample, so the highest values are more common in it than they were.

Binder: GCUUCCG (DNA:RNA) RNA: GGGAGACCGGAAUUCAGAUUGUCCGCUUCCGUUAAAUCCCGUCGUAGCCACCA DNA 1: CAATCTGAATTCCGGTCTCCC DNA 2: TGGTGGCTACGACGGGATT
binding signal: 0.0121 KA relative to UGCAUGU
//
Binder: UAAAUCG (DNA:RNA) RNA: GGGAGACCGGAAUUCAGAUUGUCCUAAAUCGUUAAAUCCCGUCGUAGCCACCA DNA 1: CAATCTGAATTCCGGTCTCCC DNA 2: TGGTGGCTACGACGGGATT
binding signal: 0.00678 KA relative to UGCAUGU
//
Binder: CUCCCAU (DNA:RNA) RNA: GGGAGACCGGAAUUCAGAUUGUCCCUCCCAUUUAAAUCCCGUCGUAGCCACCA DNA 1: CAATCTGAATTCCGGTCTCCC DNA 2: TGGTGGCTACGACGGGATT
binding signal: 0.00325 KA relative to UGCAUGU
//
Binder: GUUCCGG (DNA:RNA) RNA: GGGAGACCGGAAUUCAGAUUGUCCGUUCCGGUUAAAUCCCGUCGUAGCCACCA DNA 1: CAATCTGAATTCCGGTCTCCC DNA 2: TGGTGGCTACGACGGGATT
binding signal: 0.0142 KA relative to UGCAUGU
//
Binder: CGUCCGC (DNA:RNA) RNA: GGGAGACCGGAAUUCAGAUUGUCCCGUCCGCUUAAAUCCCGUCGUAGCCACCA DNA 1: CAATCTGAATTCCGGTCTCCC DNA 2: TGGTGGCTACGACGGGATT
binding signal: 0.00928 KA relative to UGCAUGU
//
Binder: UCAAAGA (DNA:RNA) RNA: GGGAGACCGGAAUUCAGAUUGUCCUCAAAGAUUAAAUCCCGUCGUAGCCACCA DNA 1: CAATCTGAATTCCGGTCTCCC DNA 2: TGGTGGCTACGACGGGATT
binding signal: 0.00287 KA relative to UGCAUGU
//
Binder: GCUUGUG (DNA:RNA) RNA: GGGAGACCGGAAUUCAGAUUGUCCGCUUGUGUUAAAUCCCGUCGUAGCCACCA DNA 1: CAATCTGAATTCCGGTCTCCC DNA 2: TGGTGGCTACGACGGGATT
binding signal: 0.0418 KA relative to UGCAUGU
//
Binder: UUCCAAA (DNA:RNA) RNA: GGGAGACCGGAAUUCAGAUUGUCCUUCCAAAUUAAAUCCCGUCGUAGCCACCA DNA 1: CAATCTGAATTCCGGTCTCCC DNA 2: TGGTGGCTACGACGGGATT
binding signal: 0.00275 KA relative to UGCAUGU
//
Binder: UUGCUAA (DNA:RNA) RNA: GGGAGACCGGAAUUCAGAUUGUCCUUGCUAAUUAAAUCCCGUCGUAGCCACCA DNA 1: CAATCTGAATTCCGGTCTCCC DNA 2: TGGTGGCTACGACGGGATT
binding signal: 0.00861 KA relative to UGCAUGU
//
Binder: GUGAUAC (DNA:RNA) RNA: GGGAGACCGGAAUUCAGAUUGUCCGUGAUACUUAAAUCCCGUCGUAGCCACCA DNA 1: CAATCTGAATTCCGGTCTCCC DNA 2: TGGTGGCTACGACGGGATT
binding signal: 0.00876 KA relative to UGCAUGU
//
Binder: UGCUACU (DNA:RNA) RNA: GGGAGACCGGAAUUCAGAUUGUCCUGCUACUUUAAAUCCCGUCGUAGCCACCA DNA 1: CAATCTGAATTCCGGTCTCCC DNA 2: TGGTGGCTACGACGGGATT
binding signal: 0.0158 KA relative to UGCAUGU
//
Binder: ACGGAUU (DNA:RNA) RNA: GGGAGACCGGAAUUCAGAUUGUCCACGGAUUUUAAAUCCCGUCGUAGCCACCA DNA 1: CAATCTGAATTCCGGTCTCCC DNA 2: TGGTGGCTACGACGGGATT
binding signal: 0.00809 KA relative to UGCAUGU
//
Binder: AUUUAGA (DNA:RNA) RNA: GGGAGACCGGAAUUCAGAUUGUCCAUUUAGAUUAAAUCCCGUCGUAGCCACCA DNA 1: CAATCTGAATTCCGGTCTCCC DNA 2: TGGTGGCTACGACGGGATT
binding signal: 0.0108 KA relative to UGCAUGU
//
Binder: CUCUGUC (DNA:RNA) RNA: GGGAGACCGGAAUUCAGAUUGUCCCUCUGUCUUAAAUCCCGUCGUAGCCACCA DNA 1: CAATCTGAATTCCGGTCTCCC DNA 2: TGGTGGCTACGACGGGATT
binding signal: 0.00978 KA relative to UGCAUGU
//
Binder: CACGCGU (DNA:RNA) RNA: GGGAGACCGGAAUUCAGAUUGUCCCACGCGUUUAAAUCCCGUCGUAGCCACCA DNA 1: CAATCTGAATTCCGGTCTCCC DNA 2: TGGTGGCTACGACGGGATT
binding signal: 0.00634 KA relative to UGCAUGU
//
Binder: UAGUUAU (DNA:RNA) RNA: GGGAGACCGGAAUUCAGAUUGUCCUAGUUAUUUAAAUCCCGUCGUAGCCACCA DNA 1: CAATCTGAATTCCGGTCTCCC DNA 2: TGGTGGCTACGACGGGATT
binding signal: 0.00794 KA relative to UGCAUGU
//
Binder: AGAAUCG (DNA:RNA) RNA: GGGAGACCGGAAUUCAGAUUGUCCAGAAUCGUUAAAUCCCGUCGUAGCCACCA DNA 1: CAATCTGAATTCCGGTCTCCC DNA 2: TGGTGGCTACGACGGGATT
binding signal: 0.00981 KA relative to UGCAUGU

The measurements presented in this section are drawn from paper PMC9911399.
